- Test system: K4 kissing-loop RNA reporter;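 note: bound reporter read as fluorescence of individual clusters on recovered sequencing chips by microscopy, with normalized cluster intensities fitted with a binding model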
- protocol.details: apparent KD of K4 kissing-loop reporter; higher = weaker reporter binding
- test.context: Eterna round: R107; input ligand: arginine 13.2 mM
Use 1 (yes) when the recorded apparent KD of K4 kissing-loop reporter is no lower than 200 nM; use 0 (no) when it is lower.

seq.string: GGCUAGACUUAGCUAGGUACAUAAUACGAUACCAGUCUAGAAAUAGACCCUUGGCAGCGUAGGCAGUGAUGUUGCCACUAGCUGA [Theo B SS t7]
discrete.label: 0 (no)
--
seq.string: GGUUUAUAGGAGGAUACCAGUACGAAUAAAGUACAUUAAUAGUAGAGUGAUGUUCUAAAGUACCCUUGGCAGCUUAGAGUAAGUU [#18 K4 Theophylline B Exclusion]
discrete.label: 1 (yes)
--
seq.string: GCAACAUUGGGAGGAUAUCAUUCUGAGUGAUGUUCAGGGUUCAGCUAACGAAAGUUAGUUGUACCAUGAGAAGGUCUAAUGUUGC [Omei KL FMN B SS A v6]
discrete.label: 1 (yes)
--
seq.string: CAGUUCCGUAGUGAUGUUACGAUCUCUGAUACCAGACAACUCUAAGUCCCUUGGCAGCAGUCAUUUUGCUUAAUAUUUACUCAAA [#08 K4 Theophylline A Exclusion]
discrete.label: 0 (no)
--
seq.string: UAAUCACUCGAACUUGCAACUCGAGUGGAACGAGGACCGGUACGGCCGCCACUCGAUAACUUGCAGUGAUGUUGCAAGUAAGAAU [(T)''-(K)'-(T)'-(T1)-(T2)-(K1)-(K2)_Design8]
discrete.label: 1 (yes)

Prompt: State whether the measured apparent KD of K4 kissing-loop reporter reaches 200 nM, counting equality as reaching it, for UGGUUUAGAAGUGAUGUUUCGAUAAGUGAUACCAGACAAAAGAAAGUCCCUUGGCAGCACAAUGAUGCCAAGGAAACGGCAUGAU [Same State Theophylline A GF 1]
Completion: 0 (no)

Prompt: State whether the measured apparent KD of K4 kissing-loop reporter reaches 200 nM, counting equality as reaching it, for AAAAUAAACCAGUGAUGUUGGUAUCCAGAUACCAGCGACGAAAGUCGCCCUUGGCAGCUGUGGACGUACAAAAUAAGUACGUCCU
Completion: 1 (yes)

Prompt: State whether the measured apparent KD of K4 kissing-loop reporter reaches 200 nM, counting equality as reaching it, for UUCGUCGCGCAUGAUACCAGCGAGAUUUAACGCCGAAUCCUCACGCAGUGAUGUUGCACCCGCCCUUGGCAGCAUAGCCGGUUAC [theeternabot_sameState_KL_Theo_B_13]
Completion: 1 (yes)

Prompt: State whether the measured apparent KD of K4 kissing-loop reporter reaches 200 nM, counting equality as reaching it, for CCGGGCGGCUGAAGGAGCGGGCGGGCCCGAGUGAUGUUCGGGUGGGCCGUGAGGCCCGGAGCCCAGGUAGGUCGCGGUUCCGUCC [#2 Same State - Arginine B Attempt #18 (HarryS)]
Completion: 0 (no)

Prompt: State whether the measured apparent KD of K4 kissing-loop reporter reaches 200 nM, counting equality as reaching it, for GGUAGCAUGGCGGCCGCCACUUAGACUGGAUCGGAAACGAUCCAGUGAAAACGAGUGAUGUUCGUAAGGACCGGGCCAUGCUACC
Completion: 1 (yes)

Prompt: State whether the measured apparent KD of K4 kissing-loop reporter reaches 200 nM, counting equality as reaching it, for GCGCGUCAUGUCAGCGGUGACUACGUCGAUACCAGCAGGGAAACCUGCCCUUGGCAGCGACGCGCUGGAGUGAUGUUCCGACAGA [#2 Exclusion - Theophylline A Attempt #5 (HarryS)]
Completion: 1 (yes)

Prompt: State whether the measured apparent KD of K4 kissing-loop reporter reaches 200 nM, counting equality as reaching it, for GGUAGCAUGGCGGCCGCCACUACCUAGUGAUGUUAGGCUGUGGACAUAGGAGCAAGAUAAAUAUGUAGGACCGGGCCAUGCUACC
Completion: 0 (no)

Prompt: State whether the measured apparent KD of K4 kissing-loop reporter reaches 200 nM, counting equality as reaching it, for CAUUCUAUAUGCAGUGAUGUUGCAACUGAUACCAGUAUCGAAAGAUACCCUUGGCAGCGGAAAACCGCUACGUAAUUUAAGAAUG [Ex Theophylline A K4 22]
Completion: 1 (yes)

Prompt: State whether the measured apparent KD of K4 kissing-loop reporter reaches 200 nM, counting equality as reaching it, for GCAUCCUAUGCAGGAUAUUAGCAUUUGAGUGAUGUUCAGACUAGCGAAAGCUAGUCAAUUGCUGGUUAAGAAGGGCAUAGGAUGC
Completion: 1 (yes)

Prompt: State whether the measured apparent KD of K4 kissing-loop reporter reaches 200 nM, counting equality as reaching it, for UACAGGGAUAGUGAUGUUAUCCCAUGUGAUACCAGUGCCAUCCAACACCCUUGGCAGCAUACGGGCAGUGAUGUUGUUCUUGGUA [#16 K4 Theophylline A Exclusion]
Completion: 0 (no)

###

- Test system: MS2 coat protein
- protocol.details: apparent KD of MS2 coat protein; designed switch direction (-1 OFF switch, 1 ON switch): -1; higher = weaker reporter binding
- test.context: input ligand: none
recorded.endpoint: apparent KD of MS2 coat protein (nM)
Answer with a number only, understood to be in nM.

Here's what some known entries look like.
seq.string: GGAUCGAAUGUGAGGAUAUGCUGGUCCUUGGAUCAGCAGAAGGCACAUGAGGAUCACCCAUGUGACCAAGAUCC [Eli bmx4 4.73] (Eterna round: R97, puzzle: Brourd's mod of Exclusion 4)
result.unit: nM
apparent KD of MS2 coat protein: 44.1
--
seq.string: UGGAGGUGAGGAUAUACAUGAGGAUCACCCAUGUGGUGAAGUAGAGAGUAGUGGAGUGGUAGAAGGCACGAGUA [Version #1] (Eterna round: R97, puzzle: Exclusion 3)
result.unit: nM
apparent KD of MS2 coat protein: 352

Now for another entry.
response.value for UAGUGAGCGUGAGGAAUAUACAUGAGGAUCACCCAUGUUUGCUAAUAUAUUGCUCGUCUUAUAACAACAAUUAACUG [Mod-hoo-honey#abc] (Eterna round: R97, puzzle: Sensor, turn-off variant 1) (field: apparent KD of MS2 coat protein) = 20.9

###

- Tested on: MS2 coat protein
- protocol.details: apparent KD of MS2 coat protein; designed switch direction (-1 OFF switch, 1 ON switch): 1; higher = weaker reporter binding
- test.context: input ligand: none
Use Criterion met when the recorded apparent KD of MS2 coat protein is no lower than 100 nM; use Criterion not met when it is lower.

// known answers, use as guide
seq.string: GCCAACUCAUGAGGAUAUGGCACCUUAUUGGUGCCAGAAGGCAUGUCUAUUGACAUGAGGAUCACCCAUGUAUUAUAGUUGGCA [Fiskers NG1ss - 23] (Eterna round: R96, puzzle: Same State NG 1)
discrete.label: Criterion met
//
seq.string: UGGCUCAGACGAGGAUAUACGUGGUCACAUGAGGAUCACCCAUGUCUCGAGCUUCGGCUCGAGGCGUAGAAGGUGUCUGAGCCU [SSNG2/6-C3] (Eterna round: R96, puzzle: Same State NG 2)
discrete.label: Criterion met
//
seq.string: CUGAGCGAUCAAGGAUAUCACGUCGUUUAGACGUGAGAAGGUGAUAAUUACAUGAGGAUCACCCAUGUAUAACAUGAAGCUCAG [SSNG1/9-A3] (Eterna round: R96, puzzle: Same State NG 1)
discrete.label: Criterion not met
//
seq.string: UCGGGCGUACUUGCUGACAUGAGGAUCACCCAUGUCCUUGGGCAGGAUAUGGUUCCGUUUCGGUUCCAGAAGGUCCUGGCUGCU [salish99_SSNG3_r04_318] (Eterna round: R96, puzzle: Same State NG 3)
discrete.label: Criterion not met
//
seq.string: AGUCCAGCCUGAGCUGGACAAAAGCAUGUACAUGAGGAUCACCCAUGUUCAUGUACAAGCUUUUUGCUCGUCGGAAU [Mat - hsa-mir-208a - Mod of JL - 49] (Eterna round: R96, puzzle: Sensor for hsa-mir-208a)
discrete.label: Criterion met
//
seq.string: CGUCCCUCCACAGGAUAUCGACCAUUAAAACGGCGAGAAGGGUGGCCACAUGAGGAUCACCCAUGUGGAAUUGGACAAGCUACC [Veonso] (Eterna round: R96, puzzle: Same State NG 1)
discrete.label: Criterion met

Prompt: State whether the measured apparent KD of MS2 coat protein reaches 100 nM, counting equality as reaching it, for GCGUUUAACGUAGGAUAUCGACCUACAUGAGGAUCACCCAUGUCUUUGUAUAGUUUUUUUUGUUACGAGAAGGACGUUUUGCAU [JR_SSNG2_Sub070] (Eterna round: R96, puzzle: Same State NG 2)
Completion: Criterion met

Prompt: State whether the measured apparent KD of MS2 coat protein reaches 100 nM, counting equality as reaching it, for GUUACAUGAGGAUCACCCAUGUAUGUGUGGGAGUAAGUGUCUUAGGAUAUCUAUGAUUUAGUUUAAGAGAAGGAAGAUUGUUGU [JMF's solution 79] (Eterna round: R96, puzzle: Same State NG 3)
Completion: Criterion met

Prompt: State whether the measured apparent KD of MS2 coat protein reaches 100 nM, counting equality as reaching it, for AAGAAAGACGCAGGAUAUCAGUGCAAACCGCACUGAGAAGGGUGAGACAUGAGGAUCACCCAUGUAACACGGCAAAACACCGUG [Teinre] (Eterna round: R96, puzzle: Same State NG 1)
Completion: Criterion met

Prompt: State whether the measured apparent KD of MS2 coat protein reaches 100 nM, counting equality as reaching it, for GGAGCCAAGGCAGGAUAUUCAUAUUAAAACAUGAGGAUCACCCAUGUAAAGGCCAGAAGGCCUUUGGAGAAGGGCCAUGGCUCG [Xeonanis - 13 mod14] (Eterna round: R96, puzzle: Same State NG 2)
Completion: Criterion not met

Prompt: State whether the measured apparent KD of MS2 coat protein reaches 100 nM, counting equality as reaching it, for UUAUCGCUUGGAGGAUAUCCAACUAUACUAAUUGGAGAAGGCCAAGCUACAGAGCUAAGCUUGGAAGUCACUUCGAAUCAACAC [pwkr ssNG1 F9.3] (Eterna round: R96, puzzle: Same State NG 1)
Completion: Criterion not met

Prompt: State whether the measured apparent KD of MS2 coat protein reaches 100 nM, counting equality as reaching it, for ACAUGAGAGAAAGGAUAUGUUGUACCUACAUGUGACAUGAGGAUCACCCAUGUGGUAAGUAUGAGACAGAAGGUUCAGAUAUGU [Equivalence 32 - Jieux - Same State NG 2] (Eterna round: R96, puzzle: Same State NG 2)
Completion: Criterion not met

Prompt: State whether the measured apparent KD of MS2 coat protein reaches 100 nM, counting equality as reaching it, for AGUCCAGCCUGAGCUGGACAAAAGCAUGUACAUGAGGAUCACCCAUGUCAUGUACAAGCUUUUUGCUCGUCUUAAUA [JL zipper 49] (Eterna round: R96, puzzle: Sensor for hsa-mir-208a)
Completion: Criterion met

Prompt: State whether the measured apparent KD of MS2 coat protein reaches 100 nM, counting equality as reaching it, for UAGGGACAUGAGGAUCACCCAUGUGCCUCAUAUGGAGAAACUCAGGAUAUGCUGAGGAUCACCCGGCAGAAGGGAGAUUUGAGG (Eterna round: R96, puzzle: Same State NG 3)
Completion: Criterion not met

Prompt: State whether the measured apparent KD of MS2 coat protein reaches 100 nM, counting equality as reaching it, for GCUACCAAAGAAGCCUACAUGAGGAUCACCCAUGUAUGUAGGCAGGAUAUCGAUUGCAAAGCGAUCGAGAAGGGCUUAGGUAGC [Mat - Same State NG 3 - JL Mod - D92] (Eterna round: R96, puzzle: Same State NG 3)
Completion: Criterion met

Prompt: State whether the measured apparent KD of MS2 coat protein reaches 100 nM, counting equality as reaching it, for CUUUCUCUUGCAGGAUAUCCUAGUCUUCGGUUAGGAGAAGGGCAAGGAAACUUGCUAAGCAAGUCUGUAACAGAGAUCCUUCCU [pwkr ssNG1 F9.2] (Eterna round: R96, puzzle: Same State NG 1)
Completion: Criterion met

Prompt: State whether the measured apparent KD of MS2 coat protein reaches 100 nM, counting equality as reaching it, for GCCGCGUUUCGCGCCUACAUGAGGAUCACCCAUGUUUGUAGGCAGGAUAUCGUCCGCUCUGCGGGCGAGAAGGGCUGUUGUGGC [salish99_SSNG3_R04_022] (Eterna round: R96, puzzle: Same State NG 3)
Completion: Criterion not met

Prompt: State whether the measured apparent KD of MS2 coat protein reaches 100 nM, counting equality as reaching it, for GGAAUAUUUACAGGAUAUGAUUUGUAAAUUCGAUCAGAAGGGUAGAUGUCUUACACGACUUGUUACAUGAGGAUCACCCAUGUU [SameState NG1 #9] (Eterna round: R96, puzzle: Same State NG 1)
Completion: Criterion not met

Attribution: the supplement of paper PMC9170038
